Measured IC (TGI) accompanies every entry in the list below.
system: A-549; test: SRB colorimetric cell growth inhibition assay, A-549; assay type: cell-based; details: Homo sapiens, A549, A-549; TGI=total growth inhibition (cytostatic effect); read-out: TGI A-549
Numbers only; they are read as µM.

Known IC (TGI) results, listed for orientation:
COc1cc(-c2c3n(c4c(=O)oc5cc(OC(=O)[C@H](C)NC(=O)OC(C)(C)C)c(OC)cc5c24)CCc2c-3cc(OC)c(OC)c2OC(=O)[C@H](C)NC(=O)OC(C)(C)C)ccc1OC(=O)[C@H](C)NC(=O)OC(C)(C)C = 9.57
COc1cc(-c2c3n(c4c(=O)oc5cc(OC(=O)[C@H](C)N)c(OC)cc5c24)CCc2cc(OC(=O)[C@H](C)N)c(OC)cc2-3)ccc1OC(=O)[C@H](C)N = 2.99
COc1cc(-c2c3c4cc(OC)c(OC(C)C)cc4oc(=O)c3n3ccc4c([N+](=O)[O-])cccc4c23)ccc1OC(C)C = 15.1
COc1cc(-c2c3c4cc(OC)c(OC(=O)[C@H](N)C(C)C)cc4oc(=O)c3n3ccc4c(OC(=O)[C@H](N)C(C)C)c(OC)c(OC)cc4c23)ccc1OC(=O)[C@H](N)C(C)C = 12.1
COc1cc(-c2c3c4cc(OC)c(OC(=O)[C@@H](N)CC(C)C)cc4oc(=O)c3n3ccc4cc(OC(=O)[C@@H](N)CC(C)C)c(OC)cc4c23)ccc1OC(=O)[C@@H](N)CC(C)C = 0.855

Task: So what does the record say about IC (TGI) for COc1cc(-c2c3c4cc(OC)c(OC(=O)[C@@H]5CCCN5)cc4oc(=O)c3n3ccc4c(OC(=O)[C@@H]5CCCN5)c(OC)c(OC)cc4c23)ccc1OC(=O)[C@@H]1CCCN1 ?
Result: 1.27

Task: Which IC (TGI) value belongs to COc1cc2c(cc1OC)-c1c(-c3ccc(OC(=O)[C@H](C)N)c(OC)c3)c3c4cc(OC)c(OC(=O)[C@H](C)N)cc4oc(=O)c3n1CC2 ?
Result: 5.57

----------
system: HT-29; assay: SRB colorimetric cell growth inhibition assay, HT-29; format: cell-based; settings: Homo sapiens, HT-29, HT-29; total growth inhibition (cytostatic effect); read-out: TGI HT-29
OBSERVABLE: IC (TGI) (µM)
Response body: numeric value in µM, unit text excluded.

COc1cc2ccn3c(c(-c4ccc(OC(=O)[C@@H](NC(=O)OC(C)(C)C)C(C)C)c(OC)c4)c4c5cc(OC)c(OC(=O)[C@@H](NC(=O)OC(C)(C)C)C(C)C)cc5oc(=O)c43)c2cc1OC = 0.111
COc1cc(-c2c3c4cc(OC)c(OC(=O)CCCCCN)cc4oc(=O)c3n3ccc4c(OC(=O)CCCCCN)c(OC)c(OC)cc4c23)ccc1OC(=O)CCCCCN = 10.2
COc1cc2c(cc1O)oc(=O)c1c2c(-c2cccc([N+](=O)[O-])c2)c2c3cc(OC)c(O)cc3ccn21 = 20.1
COc1cc(-c2c3n(c4c(=O)oc5cc(OC(=O)c6cc(F)c(F)c(F)c6F)c(OC)cc5c24)CCc2c-3cc(OC)c(OC)c2OC(=O)c2cc(F)c(F)c(F)c2F)ccc1OC(=O)c1cc(F)c(F)c(F)c1F = 9.44

Consider the record given below.
Task: Reported IC (TGI) for COc1cc(-c2c3c4cc(OC)c(O)cc4oc(=O)c3n3ccc4cc(O)c(OC)cc4c23)ccc1O [Compound 3, lamellarin D, reference compound] : what is it?
Result: 19

----------
test system: IGROV-ET; test: SRB colorimetric cell growth inhibition assay, IGROV-ET (ET-743 resistant); type: cell-based; settings: Homo sapiens, IGROV-ET; total growth inhibition (cytostatic effect); read-out: TGI IGROV-ET
Below, each of the compounds is paired with its reported log10 IC (TGI) value.
Quick note: numbers are log10 of IC (TGI), with µM as the unit.

Past entries and their recorded results:
COc1cc(-c2c3c4cc(OC)c(OC(=O)CCCCCN)cc4oc(=O)c3n3ccc4c(OC(=O)CCCCCN)c(OC)c(OC)cc4c23)ccc1OC(=O)CCCCCN = -0.36
COc1cc(-c2c3c4cc(OC)c(O)cc4oc(=O)c3n3ccc4cc(OC)c(OC)cc4c23)ccc1O = 0.32
COc1cc(-c2c3c4cc(OC)c(OC(=O)CCCCCN)cc4oc(=O)c3n3ccc4cc(OC(=O)CCCCCN)c(OC)cc4c23)ccc1OC(=O)CCCCCN = -0.52
COc1cc2ccn3c(c(-c4ccc(OC(=O)[C@@H](NC(=O)OC(C)(C)C)C(C)C)c(OC)c4)c4c5cc(OC)c(OC(=O)[C@@H](NC(=O)OC(C)(C)C)C(C)C)cc5oc(=O)c43)c2cc1OC = 1.04
COc1cc(-c2c3n(c4c(=O)oc5cc(OC(=O)CCc6ccccc6)c(OC)cc5c24)CCc2cc(OC(=O)CCc4ccccc4)c(OC)cc2-3)ccc1OC(=O)CCc1ccccc1 = 1.05

Task: Bench note: what log10 IC (TGI) did COc1cc(-c2c3c4cc(OC)c(OC(=O)[C@H](C)NC(=O)[C@H](C)N)cc4oc(=O)c3n3ccc4c(OC(=O)[C@H](C)NC(=O)[C@H](C)N)c(OC)c(OC)cc4c23)ccc1OC(=O)[C@H](C)NC(=O)[C@H](C)N show?
Result: 0.03

Task: I'd like to know its log10 IC (TGI). The compound in question is COc1cc2ccn3c(c(-c4ccc(OC(=O)[C@H](C)N)c(OC)c4)c4c5cc(OC)c(OC(=O)[C@H](C)N)cc5oc(=O)c43)c2cc1OC
Result: 1.18

Task: May I ask what log10 IC (TGI) has been recorded for COc1cc(-c2c3c4cc(OC)c(OC(=O)[C@@H](N)CO)cc4oc(=O)c3n3ccc4c(OC(=O)[C@@H](N)CO)c(OC)c(OC)cc4c23)ccc1OC(=O)[C@@H](N)CO ?
Result: -0.01

----------
tested on: A-549; test: SRB colorimetric cell growth inhibition assay, A-549; assay type: cell-based; conditions: A-549; total growth inhibition (cytostatic effect)
OBSERVABLE: TGI A-549 (Molar)
Numeric answer only, unit Molar assumed.

Take a look at these entries with their results.
COc1cc2ccn3c(c(-c4ccc(OC(=O)[C@@H](N)C(C)C)c(OC)c4)c4c5cc(OC)c(OC(=O)[C@@H](N)C(C)C)cc5oc(=O)c43)c2cc1OC [Compound 14] = 1.40E−05
COc1cc(-c2c3n(c4c(=O)oc5cc(OS(C)(=O)=O)c(OC)cc5c24)CCc2cc(OS(C)(=O)=O)c(OC)cc2-3)ccc1OS(C)(=O)=O = 7.73E−06
COc1cc(-c2c3c4cc(OC)c(OC(=O)[C@H](C)N)cc4oc(=O)c3n3ccc4cc(O)c(OC)cc4c23)ccc1O.Cl = 4.70E−07
COc1cc(-c2c3c4cc(OC)c(OC(=O)[C@H](C)N)cc4oc(=O)c3n3ccc4c(OC(=O)[C@H](C)N)c(OC)c(OC)cc4c23)ccc1OC(=O)[C@H](C)N [Compound 16] = 5.02E−07
COc1cc2ccn3c(c(-c4ccc(OC(=O)[C@@H](N)C(C)C)c(OC)c4)c4c5cc(OC)c(OC(=O)[C@@H](N)C(C)C)cc5oc(=O)c43)c2cc1OC [Compound 19] = 2.13E−06
COc1cc(-c2c3n(c4c(=O)oc5cc(OC(C)=O)c(OC)cc5c24)CCc2cc(OC)c(OC(C)=O)cc2-3)ccc1OC(C)=O = 1.59E−05

Task: Reported TGI A-549 for A-549, given COc1cc(-c2c3c4cc(OC)c(OC(=O)[C@H](C)N)cc4oc(=O)c3n3ccc4c(OC(=O)[C@H](C)N)c(OC)c(OC)cc4c23)ccc1OC(=O)[C@H](C)N [Compound 191] ?
Result: 1.17E−05

Task: Form: Entry = COc1cc2c(cc1O)oc(=O)c1c2c(-c2ccc(OC(=O)[C@H](C)N)c(OC)c2)c2c3cc(OC)c(O)cc3ccn21.Cl | System = A-549 | TGI A-549 = ____
Result: 4.38E−07

----------
Test system: HeLa-APL
Test: SRB colorimetric cell growth inhibition assay, HeLa-APL (aplidine resistant)
Format: cell-based
Conditions: HELA-APL; total growth inhibition (cytostatic effect)
Protocol: The finality of these assays is to interrupt the growth of an “in vitro” tumor cell culture by means a continued exhibition of the cells to the sample to be testing. A colorimetric type of assay, using sulforhodamine B (SRB) reaction has been adapted for a quantitative measurement of cell growth and viability (following the technique described by P. A. Skehan, et al., J. Natl. Cancer Inst. 1990, 82, 1107-1112). […] The values for mean +/− SD of data from triplicate wells are calculated. […]
OBSERVABLE: TGI HELA-APL (Molar)
Supply the numeric figure in Molar, leaving out any unit text.

Examples from the recorded data:
COc1cc(-c2c3c4cc(OC)c(OC(=O)[C@H](C)N)cc4oc(=O)c3n3ccc4cc(O)c(OC)cc4c23)ccc1O.Cl = 1.40E−06
COc1cc2c(cc1O)oc(=O)c1c2c(-c2ccc(OC(=O)[C@H](C)N)c(OC)c2)c2c3cc(OC)c(O)cc3ccn21.Cl = 5.16E−07
COc1cc(-c2c3c4cc(OC)c(OC(=O)[C@H](C)N)cc4oc(=O)c3n3ccc4c(OC(=O)[C@H](C)N)c(OC)c(OC)cc4c23)ccc1OC(=O)[C@H](C)N [Compound 16] = 5.20E−07

Task: Could you tell me which TGI HELA-APL is on file for COc1cc(-c2c3c4cc(OC)c(OC(=O)[C@H](C)N)cc4oc(=O)c3n3ccc4c(OC(=O)[C@H](C)N)c(OC)c(OC)cc4c23)ccc1OC(=O)[C@H](C)N [Compound 191] ?
Result: 2.52E−06
